Entries below carry reported pIC50 on Lck (p56^lck, active) (Homo sapiens, UniProt P06239).
Sequence (P06239 whole entry, species assumed): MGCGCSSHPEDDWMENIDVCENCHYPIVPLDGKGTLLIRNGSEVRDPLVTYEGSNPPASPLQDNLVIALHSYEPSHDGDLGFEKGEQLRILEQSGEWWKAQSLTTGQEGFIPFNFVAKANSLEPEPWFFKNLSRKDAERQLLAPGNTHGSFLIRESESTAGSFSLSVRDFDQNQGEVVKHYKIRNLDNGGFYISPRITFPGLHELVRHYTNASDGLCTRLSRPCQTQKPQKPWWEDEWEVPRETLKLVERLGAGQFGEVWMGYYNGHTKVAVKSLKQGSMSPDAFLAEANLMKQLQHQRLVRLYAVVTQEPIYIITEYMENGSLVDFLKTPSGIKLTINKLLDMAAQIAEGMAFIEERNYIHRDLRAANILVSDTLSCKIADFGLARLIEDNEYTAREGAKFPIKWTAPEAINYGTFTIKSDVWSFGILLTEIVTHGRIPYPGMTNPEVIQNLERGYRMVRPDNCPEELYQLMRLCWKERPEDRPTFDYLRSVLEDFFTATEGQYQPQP
pIC50: −log10 of the molar value.

Below: 2 molecules and their reported pIC50.
- ENTRY SMILES: "Cc1ccc([N+](=O)[O-])cc1C(=O)Nc1cnc2[nH]c(-c3ccccc3)nc2c1"
  pIC50: "5.05 to 6.00"
- ENTRY SMILES: "O=C(Nc1cnc2[nH]c(-c3cccs3)nc2c1)c1ccccc1Cl"
  pIC50: "5.05 to 7.40"

Then this molecule:
Query pIC50 on Lck (p56^lck, active) (Homo sapiens, UniProt P06239) for Cc1ccccc1C(=O)Nc1cnc2[nH]c(-c3ccccc3)cc2c1
5.05 to 7.40

* * *

Listed here: items and their measured IC50.
EXPERIMENTAL TARGET: Lck (p56^lck, active) (Homo sapiens)

Query IC50 on Lck (p56^lck, active) (Homo sapiens) for O=C(Nc1cnc2[nH]c(-c3ccc(N4CCOCC4)cc3)nc2c1)c1ccccc1Cl [Example 4-5]
49 nM

Query IC50 on Lck (p56^lck, active) (Homo sapiens) for C[S+]([O-])c1cccc(-c2nc3cc(NC(=O)c4ccccc4Cl)cnc3[nH]2)c1 (centres unmarked) [Example 9-1]
40 to 9000 nM

Query IC50 on Lck (p56^lck, active) (Homo sapiens) for O=C(Nc1cnc2[nH]c(-c3ccccc3)nc2c1)c1ccccc1Cl [Example 1-1]
481 nM

Query IC50 on Lck (p56^lck, active) (Homo sapiens) for O=C(Nc1cnc2[nH]c(-c3ccc4[nH]cnc4c3)nc2c1)c1ccccc1Cl [Example 7-5]
40 to 9000 nM

Query IC50 on Lck (p56^lck, active) (Homo sapiens) for COc1cc(OC)cc(C(=O)Nc2cnc3[nH]c(-c4ccccc4)cc3c2)c1 [Example 12-12]
40 to 9000 nM

Query IC50 on Lck (p56^lck, active) (Homo sapiens) for COCCOc1ccc(-c2cc3cc(NC(=O)c4ccccc4OC)cnc3[nH]2)cc1 [Example 12-14]
40 to 9000 nM

Query IC50 on Lck (p56^lck, active) (Homo sapiens) for O=C(Nc1cnc2[nH]c(-c3ccccc3)cc2c1)c1ccc(Cl)cc1Cl [Example 12-4]
40 to 9000 nM

Query IC50 on Lck (p56^lck, active) (Homo sapiens) for O=C(Nc1cnc2[nH]c(-c3ccc(N4CCOCC4)nc3)nc2c1)c1ccccc1Cl [Example 7-7]
40 to 9000 nM
